# assay method text: Viability assay against CHO cells (MTT colorimetric assay)
# Format: cell-based, Chinese hamster
# protocol conditions: Chinese hamster, CHO cells, 1.25e-006 M; 72 h; replicates n = 1, 2, 3; read-out: % viable cells
Starred links: 1 amine or outer side, 2 acyl side, 3 side chain; linkers in the order of their positions; H or OH if unused. Positions of bridges follow the written chain, without caps; N, C: chain ends. Non-standard residues stand in square brackets, D forms with d. Residues, ends and D or L forms follow the SMILES beside them. X4 = CC(C)(C)OC(=O)/N=C(\N)N[C@@H]1C[C@@H](C(=O)[*:2])N([*:1])C1; Trp(2-yl) = O=C([C@H](Cc1c([*:3])[nH]c2ccccc12)N[*:1])[*:2]; Pro(trans-4-guanidino) = N=C(N)N[C@H]1CN[C@H](C(=O)O)C1; Pro(4R-SH) = O=C([C@@H]1C[C@@H](S[*:3])CN1[*:1])[*:2]; X2 = [N-]=[N+]=N[C@@H]1C[C@@H](C(=O)[*:2])N([*:1])C1; Ile(4R-OH,5-OH) = C[C@H]([C@H](N)C(=O)O)[C@@H](O)CO; X5 = COC(=O)N[C@@H]1C[C@@H](C(=O)[*:2])N([*:1])C1; X1 = N#C[C@@H]1C[C@@H](C(=O)[*:2])N([*:1])C1; Pro(4R-NH2) = N[C@H]1CN[C@H](C(=O)O)C1
readout: viability at 72 h, 1.25e-06 M (%)
Number only, in %; omit the unit.

Worked set:
CC[C@H](C)[C@@H]1NC(=O)CNC(=O)[C@@H]2Cc3c([nH]c4ccccc34)SC[C@H](NC(=O)CNC1=O)C(=O)N[C@@H](CC(N)=O)C(=O)N1C[C@H](NC(=N)N)C[C@H]1C(=O)N[C@@H]([C@@H](C)[C@@H](O)CO)C(=O)N2 [Compound 7, Gdn-Pro-amanitin] (cyclo(CN[Pro(trans-4-guanidino)][Ile(4R-OH,5-OH)][Trp(2-yl)]GIG); thioether 1-5) = 89
CC[C@H](C)[C@@H]1NC(=O)CNC(=O)[C@@H]2Cc3c([nH]c4ccccc34)SC[C@H](NC(=O)CNC1=O)C(=O)N[C@@H](CC(N)=O)C(=O)N1C[C@H](C#N)C[C@H]1C(=O)N[C@@H]([C@@H](C)[C@@H](O)CO)C(=O)N2 [Compound 4, CN-Pro-amanitin] (cyclo(CN[X1][Ile(4R-OH,5-OH)][Trp(2-yl)]GIG); thioether 1-5) = 102
CC[C@H](C)[C@@H]1NC(=O)CNC(=O)[C@@H]2Cc3c([nH]c4ccccc34)SC[C@H](NC(=O)CNC1=O)C(=O)N[C@@H](CC(N)=O)C(=O)N1C[C@H](N)C[C@H]1C(=O)N[C@@H]([C@@H](C)[C@@H](O)CO)C(=O)N2 [Compound 6, NH2-Pro-amanitin] (cyclo(CN[Pro(4R-NH2)][Ile(4R-OH,5-OH)][Trp(2-yl)]GIG); thioether 1-5) = 95
CC[C@H](C)[C@@H]1NC(=O)CNC(=O)[C@@H]2Cc3c([nH]c4ccccc34)SC[C@H](NC(=O)CNC1=O)C(=O)N[C@@H](CC(N)=O)C(=O)N1C[C@H](N=[N+]=[N-])C[C@H]1C(=O)N[C@@H]([C@@H](C)[C@@H](O)CO)C(=O)N2 [Compound 3, N3-Pro-amanitin] (cyclo(CN[X2][Ile(4R-OH,5-OH)][Trp(2-yl)]GIG); thioether 1-5) = 105

Returns the measured viability at 72 h, 1.25e-06 M for the input compound. Input: CC[C@H](C)[C@@H]1NC(=O)CNC(=O)[C@@H]2Cc3c([nH]c4ccccc34)SC[C@H](NC(=O)CNC1=O)C(=O)N[C@@H](CC(N)=O)C(=O)N1C[C@H](S)C[C@H]1C(=O)N[C@@H]([C@@H](C)[C@@H](O)CO)C(=O)N2 [Compound 5, SH-Pro-amanitin] (cyclo(CN[Pro(4R-SH)][Ile(4R-OH,5-OH)][Trp(2-yl)]GIG); thioether 1-5)
93

Record: CC[C@H](C)[C@@H]1NC(=O)CNC(=O)[C@@H]2Cc3c([nH]c4ccccc34)SC[C@H](NC(=O)CNC1=O)C(=O)N[C@@H](CC(N)=O)C(=O)N1C[C@H](N/C(N)=N/C(=O)OC(C)(C)C)C[C@H]1C(=O)N[C@@H]([C@@H](C)[C@@H](O)CO)C(=O)N2 [Compound 9, Boc-Gdn-Pro-amanitin] (cyclo(CN[X4][Ile(4R-OH,5-OH)][Trp(2-yl)]GIG); thioether 1-5)
84

Record: CC[C@H](C)[C@@H]1NC(=O)CNC(=O)[C@@H]2Cc3c([nH]c4ccccc34)SC[C@H](NC(=O)CNC1=O)C(=O)N[C@@H](CC(N)=O)C(=O)N1C[C@H](NC(=O)OC)C[C@H]1C(=O)N[C@@H]([C@@H](C)[C@@H](O)CO)C(=O)N2 [Compound 32, MeOCONH-Pro-amanitin] (cyclo(CN[X5][Ile(4R-OH,5-OH)][Trp(2-yl)]GIG); thioether 1-5)
89

###

# assay method text: Viability assay against CHO cells (MTT colorimetric assay)
# Type: cell-based, Chinese hamster
# protocol conditions: Chinese hamster, CHO cells, 5e-006 M; 72 h; replicates n = 1, 2, 3; read-out: % viable cells
Starred links: 1 amine or outer side, 2 acyl side, 3 side chain; linkers in the order of their positions; H or OH if unused. Positions of bridges follow the written chain, without caps; N, C: chain ends. Non-standard residues stand in square brackets, D forms with d. Residues, ends and D or L forms follow the SMILES beside them. X4 = CC(C)(C)OC(=O)/N=C(\N)N[C@@H]1C[C@@H](C(=O)[*:2])N([*:1])C1; Trp(2-yl) = O=C([C@H](Cc1c([*:3])[nH]c2ccccc12)N[*:1])[*:2]; X2 = [N-]=[N+]=N[C@@H]1C[C@@H](C(=O)[*:2])N([*:1])C1; Ile(4R-OH,5-OH) = C[C@H]([C@H](N)C(=O)O)[C@@H](O)CO; Pro(4R-NH2) = N[C@H]1CN[C@H](C(=O)O)C1
compounds and their reported viability at 72 h, 5e-06 M
Number only, in %; omit the unit.

Returns the measured viability at 72 h, 5e-06 M for the input compound. Input: CC[C@H](C)[C@@H]1NC(=O)CNC(=O)[C@@H]2Cc3c([nH]c4ccccc34)SC[C@H](NC(=O)CNC1=O)C(=O)N[C@@H](CC(N)=O)C(=O)N1C[C@H](N/C(N)=N/C(=O)OC(C)(C)C)C[C@H]1C(=O)N[C@@H]([C@@H](C)[C@@H](O)CO)C(=O)N2 [Compound 9, Boc-Gdn-Pro-amanitin] (cyclo(CN[X4][Ile(4R-OH,5-OH)][Trp(2-yl)]GIG); thioether 1-5)
86

Record: CC[C@H](C)[C@@H]1NC(=O)CNC(=O)[C@@H]2Cc3c([nH]c4ccccc34)SC[C@H](NC(=O)CNC1=O)C(=O)N[C@@H](CC(N)=O)C(=O)N1C[C@H](N)C[C@H]1C(=O)N[C@@H]([C@@H](C)[C@@H](O)CO)C(=O)N2 [Compound 6, NH2-Pro-amanitin] (cyclo(CN[Pro(4R-NH2)][Ile(4R-OH,5-OH)][Trp(2-yl)]GIG); thioether 1-5)
87

Record: CC[C@H](C)[C@@H]1NC(=O)CNC(=O)[C@@H]2Cc3c([nH]c4ccccc34)SC[C@H](NC(=O)CNC1=O)C(=O)N[C@@H](CC(N)=O)C(=O)N1C[C@H](N=[N+]=[N-])C[C@H]1C(=O)N[C@@H]([C@@H](C)[C@@H](O)CO)C(=O)N2 [Compound 3, N3-Pro-amanitin] (cyclo(CN[X2][Ile(4R-OH,5-OH)][Trp(2-yl)]GIG); thioether 1-5)
104

###

# assay method text: Viability assay against CHO cells (MTT colorimetric assay)
# Assay type: cell-based, Chinese hamster
# protocol conditions: Chinese hamster, CHO cells, 7.8e-008 M; 72 h; replicates n = 1, 2, 3; read-out: % viable cells
Starred links: 1 amine or outer side, 2 acyl side, 3 side chain; linkers in the order of their positions; H or OH if unused. Positions of bridges follow the written chain, without caps; N, C: chain ends. Non-standard residues stand in square brackets, D forms with d. Residues, ends and D or L forms follow the SMILES beside them. X4 = CC(C)(C)OC(=O)/N=C(\N)N[C@@H]1C[C@@H](C(=O)[*:2])N([*:1])C1; Trp(2-yl) = O=C([C@H](Cc1c([*:3])[nH]c2ccccc12)N[*:1])[*:2]; Pro(trans-4-guanidino) = N=C(N)N[C@H]1CN[C@H](C(=O)O)C1; Pro(4R-SH) = O=C([C@@H]1C[C@@H](S[*:3])CN1[*:1])[*:2]; Ile(4R-OH,5-OH) = C[C@H]([C@H](N)C(=O)O)[C@@H](O)CO; X5 = COC(=O)N[C@@H]1C[C@@H](C(=O)[*:2])N([*:1])C1
compounds and their reported viability at 72 h, 7.8e-08 M
Number only, in %; omit the unit.

Worked set:
CC[C@H](C)[C@@H]1NC(=O)CNC(=O)[C@@H]2Cc3c([nH]c4ccccc34)SC[C@H](NC(=O)CNC1=O)C(=O)N[C@@H](CC(N)=O)C(=O)N1C[C@H](S)C[C@H]1C(=O)N[C@@H]([C@@H](C)[C@@H](O)CO)C(=O)N2 [Compound 5, SH-Pro-amanitin] (cyclo(CN[Pro(4R-SH)][Ile(4R-OH,5-OH)][Trp(2-yl)]GIG); thioether 1-5) = 94
CC[C@H](C)[C@@H]1NC(=O)CNC(=O)[C@@H]2Cc3c([nH]c4ccccc34)SC[C@H](NC(=O)CNC1=O)C(=O)N[C@@H](CC(N)=O)C(=O)N1C[C@H](NC(=N)N)C[C@H]1C(=O)N[C@@H]([C@@H](C)[C@@H](O)CO)C(=O)N2 [Compound 7, Gdn-Pro-amanitin] (cyclo(CN[Pro(trans-4-guanidino)][Ile(4R-OH,5-OH)][Trp(2-yl)]GIG); thioether 1-5) = 96
CC[C@H](C)[C@@H]1NC(=O)CNC(=O)[C@@H]2Cc3c([nH]c4ccccc34)SC[C@H](NC(=O)CNC1=O)C(=O)N[C@@H](CC(N)=O)C(=O)N1C[C@H](NC(=O)OC)C[C@H]1C(=O)N[C@@H]([C@@H](C)[C@@H](O)CO)C(=O)N2 [Compound 32, MeOCONH-Pro-amanitin] (cyclo(CN[X5][Ile(4R-OH,5-OH)][Trp(2-yl)]GIG); thioether 1-5) = 88

Kindly consider the entry below.
Returns the measured viability at 72 h, 7.8e-08 M for the input compound. Input: CC[C@H](C)[C@@H]1NC(=O)CNC(=O)[C@@H]2Cc3c([nH]c4ccccc34)SC[C@H](NC(=O)CNC1=O)C(=O)N[C@@H](CC(N)=O)C(=O)N1C[C@H](N/C(N)=N/C(=O)OC(C)(C)C)C[C@H]1C(=O)N[C@@H]([C@@H](C)[C@@H](O)CO)C(=O)N2 [Compound 9, Boc-Gdn-Pro-amanitin] (cyclo(CN[X4][Ile(4R-OH,5-OH)][Trp(2-yl)]GIG); thioether 1-5)
85
